- Test system: P388 leukemia ip, CD2F1 mice, survival T/C
- EXPERIMENTAL DETAILS: NCI In Vivo Anticancer Drug Screen. Data for tumor model P388 Leukemia (intraperitoneal) in CD2F1 (CDF1) mice
- CONDITION NOTES: endpoint: median survival time; dose: 50.0 mg/kg/injection; schedule: Q01DX009 (ip); vehicle: Klucel (hydroxypropylcellulose) (HPC); higher = longer survival
Inconclusive results and toxic doses are left out.

- COMPOUND: "NC(=O)NCCSC1(SCCNC(N)=O)CCCCC1"
  TARGET OF ASSAY: "P388 leukemia ip, CD2F1 mice, survival T/C"
  T/C: "107 % of control"
- COMPOUND: "CCn1c(=O)c2[nH]c(Cl)nc2n(C2CC2)c1=O"
  TARGET OF ASSAY: "P388 leukemia ip, CD2F1 mice, survival T/C"
  T/C: "99 % of control"
- COMPOUND: "CC(/C=N/N=C1\\C(=O)Nc2ccccc21)=C\\c1ccccc1"
  TARGET OF ASSAY: "P388 leukemia ip, CD2F1 mice, survival T/C"
  T/C: "95 % of control"
- COMPOUND: "CCCCCCCCCCCC(=O)/C=C/c1ccccc1"
  TARGET OF ASSAY: "P388 leukemia ip, CD2F1 mice, survival T/C"
  T/C: "102 % of control"
- COMPOUND: "COC(=O)c1ccccc1NC(c1ccccn1)c1ccc2cccnc2c1O (stereo not given)"
  TARGET OF ASSAY: "P388 leukemia ip, CD2F1 mice, survival T/C"
  T/C: "109 % of control"
- COMPOUND: "Cn1cnc([N+](=O)[O-])c1SCC(=O)O"
  TARGET OF ASSAY: "P388 leukemia ip, CD2F1 mice, survival T/C"
  T/C: "108 % of control"
- COMPOUND: "Nc1nc(N)c(-c2ccc(Cl)c(Cl)c2)c(CP(Cl)(Cl)(Cl)Br)n1"
  TARGET OF ASSAY: "P388 leukemia ip, CD2F1 mice, survival T/C"
  T/C: "114 % of control"
- COMPOUND: "COc1cc(NCc2ccc3nc(N)nc(N)c3c2C)cc(OC)c1OC"
  TARGET OF ASSAY: "P388 leukemia ip, CD2F1 mice, survival T/C"
  T/C: "225 % of control"
- COMPOUND: "CC(C)S(=O)(=O)c1ccc(Cl)cc1[N+](=O)[O-]"
  TARGET OF ASSAY: "P388 leukemia ip, CD2F1 mice, survival T/C"
  T/C: "100 % of control"
- COMPOUND: "O=C(CNNC(=S)Nc1cccc2ccccc12)c1cccc2c1Nc1ccccc1S2"
  TARGET OF ASSAY: "P388 leukemia ip, CD2F1 mice, survival T/C"
  T/C: "101 % of control"
- COMPOUND: "CC(/C=C/c1ccccc1)=N\\Nc1c(F)c(F)c(F)c(F)c1F"
  TARGET OF ASSAY: "P388 leukemia ip, CD2F1 mice, survival T/C"
  T/C: "103 % of control"
- COMPOUND: "CC(C)(C)CC(C)(C)c1ccc(OCCOc2ccc(C(=O)NCCNC(=O)c3ccc4ccccc4c3O)cc2N)cc1"
  TARGET OF ASSAY: "P388 leukemia ip, CD2F1 mice, survival T/C"
  T/C: "98 % of control"
- COMPOUND: "Nc1cc(N)n(N)c(=S)n1"
  TARGET OF ASSAY: "P388 leukemia ip, CD2F1 mice, survival T/C"
  T/C: "100 % of control"
- COMPOUND: "Cc1ccc2nc(-c3cccc(Cl)c3)oc(=O)c2c1"
  TARGET OF ASSAY: "P388 leukemia ip, CD2F1 mice, survival T/C"
  T/C: "110 % of control"
- COMPOUND: "Clc1cccc(N(C2=NCCS2)C2=NCCS2)c1"
  TARGET OF ASSAY: "P388 leukemia ip, CD2F1 mice, survival T/C"
  T/C: "104 % of control"
- COMPOUND: "O=C1NCCN1C(=O)Nc1ccc(Cl)c(Cl)c1"
  TARGET OF ASSAY: "P388 leukemia ip, CD2F1 mice, survival T/C"
  T/C: "116 % of control"
- COMPOUND: "CC(C)(OC(=O)c1ccc([N+](=O)[O-])cc1)C(=O)O"
  TARGET OF ASSAY: "P388 leukemia ip, CD2F1 mice, survival T/C"
  T/C: "99 % of control"
- COMPOUND: "CCCCCCCCCCCCCCCN1CCS(=O)(=O)CC1"
  TARGET OF ASSAY: "P388 leukemia ip, CD2F1 mice, survival T/C"
  T/C: "98 % of control"
- COMPOUND: "NC(=N\\O)/C(N)=N\\O"
  TARGET OF ASSAY: "P388 leukemia ip, CD2F1 mice, survival T/C"
  T/C: "100 % of control"
- COMPOUND: "Cc1cnc(SC2C3CC4CC(C3)CC2C4)c(C)c1 (stereo not given)"
  TARGET OF ASSAY: "P388 leukemia ip, CD2F1 mice, survival T/C"
  T/C: "99 % of control"
- COMPOUND: "OC(C(=S)N1CCCC1)(c1ccccc1)c1ccccc1"
  TARGET OF ASSAY: "P388 leukemia ip, CD2F1 mice, survival T/C"
  T/C: "103 % of control"
- COMPOUND: "CC(=O)/C=C/c1ccccc1"
  TARGET OF ASSAY: "P388 leukemia ip, CD2F1 mice, survival T/C"
  T/C: "101 % of control"
- COMPOUND: "C(=C\\c1ccccc1)/CN1CCN(C(c2ccccc2)c2ccccc2)CC1"
  TARGET OF ASSAY: "P388 leukemia ip, CD2F1 mice, survival T/C"
  T/C: "97 % of control"
- COMPOUND: "Cc1ccc2c(I)cc(I)c(O)c2n1"
  TARGET OF ASSAY: "P388 leukemia ip, CD2F1 mice, survival T/C"
  T/C: "107 % of control"
- COMPOUND: "Clc1ccc(-c2nnc(-c3ccccc3)o2)cc1Cl"
  TARGET OF ASSAY: "P388 leukemia ip, CD2F1 mice, survival T/C"
  T/C: "112 % of control"
- COMPOUND: "C1CN(/N=N/c2nn[nH]n2)CCO1"
  TARGET OF ASSAY: "P388 leukemia ip, CD2F1 mice, survival T/C"
  T/C: "117 % of control"
- COMPOUND: "CCSc1nc2ccc(NC(=O)CCC(=O)O)cc2s1"
  TARGET OF ASSAY: "P388 leukemia ip, CD2F1 mice, survival T/C"
  T/C: "103 % of control"
- COMPOUND: "Cc1ccnc(NC(=O)Nc2cc(Cl)ccc2Cl)c1"
  TARGET OF ASSAY: "P388 leukemia ip, CD2F1 mice, survival T/C"
  T/C: "100 % of control"
- COMPOUND: "CCn1c(=O)c2[nH]c(SC)nc2n(CC)c1=O"
  TARGET OF ASSAY: "P388 leukemia ip, CD2F1 mice, survival T/C"
  T/C: "116 % of control"
- COMPOUND: "NC(=O)c1nc2ccccn2c1[N+](=O)[O-]"
  TARGET OF ASSAY: "P388 leukemia ip, CD2F1 mice, survival T/C"
  T/C: "99 % of control"
- COMPOUND: "Cc1ccc(S(=O)(=O)OCCN(CCOS(=O)(=O)c2ccc(C)cc2)S(=O)(=O)c2ccc(C)cc2)cc1"
  TARGET OF ASSAY: "P388 leukemia ip, CD2F1 mice, survival T/C"
  T/C: "108 % of control"
- COMPOUND: "COc1cc(-c2n[nH]c(=O)o2)cc(OC)c1OC"
  TARGET OF ASSAY: "P388 leukemia ip, CD2F1 mice, survival T/C"
  T/C: "105 % of control"
- COMPOUND: "CC12CC3(C)CC(C)(C1)CC(C(Cl)C(=O)NC(C)(C)C)(C2)C3 (stereo not given)"
  TARGET OF ASSAY: "P388 leukemia ip, CD2F1 mice, survival T/C"
  T/C: "97 % of control"
- COMPOUND: "CC(C)c1ncc(CO)n1Cc1c(Cl)cccc1Cl"
  TARGET OF ASSAY: "P388 leukemia ip, CD2F1 mice, survival T/C"
  T/C: "100 % of control"
- COMPOUND: "CCCCCCCCCCOC(=O)c1ccccc1"
  TARGET OF ASSAY: "P388 leukemia ip, CD2F1 mice, survival T/C"
  T/C: "98 % of control"
- COMPOUND: "Cc1ccc(N2C(=O)CC3(CCCCC3)C2=O)cc1C"
  TARGET OF ASSAY: "P388 leukemia ip, CD2F1 mice, survival T/C"
  T/C: "106 % of control"
- COMPOUND: "CCCCCCCC/C=C\\CCCCCCCCCCCC(=O)O"
  TARGET OF ASSAY: "P388 leukemia ip, CD2F1 mice, survival T/C"
  T/C: "100 % of control"
- COMPOUND: "Cc1ccc2c(c1)sc1n[nH]c(=S)n12"
  TARGET OF ASSAY: "P388 leukemia ip, CD2F1 mice, survival T/C"
  T/C: "100 % of control"
- COMPOUND: "Cc1c2oc3c(C)ccc(C(=O)NCCN4CCCCC4)c3nc-2c(C(=O)NCCN2CCCCC2)c(N)c1=O"
  TARGET OF ASSAY: "P388 leukemia ip, CD2F1 mice, survival T/C"
  T/C: "115 % of control"
- COMPOUND: "N#Cc1nc2ccccc2n1OCc1ccccc1"
  TARGET OF ASSAY: "P388 leukemia ip, CD2F1 mice, survival T/C"
  T/C: "97 % of control"
- COMPOUND: "S=C(SSC(=S)C1CCCC1=NC1CCCCC1)C1CCCC1=NC1CCCCC1 (stereo not given)"
  TARGET OF ASSAY: "P388 leukemia ip, CD2F1 mice, survival T/C"
  T/C: "101 % of control"
- COMPOUND: "Cc1nc(-c2ccccc2)c2c(C)[nH]c(-c3ccccc3)c2n1"
  TARGET OF ASSAY: "P388 leukemia ip, CD2F1 mice, survival T/C"
  T/C: "110 % of control"
- COMPOUND: "O=C(O)c1ccccc1C(=O)c1ccccn1"
  TARGET OF ASSAY: "P388 leukemia ip, CD2F1 mice, survival T/C"
  T/C: "99 % of control"
- COMPOUND: "CCOc1ccc(/C=C2\\CCc3ccccc3C2=O)cc1"
  TARGET OF ASSAY: "P388 leukemia ip, CD2F1 mice, survival T/C"
  T/C: "98 % of control"
- COMPOUND: "Nc1nnc(-c2ccccc2)s1"
  TARGET OF ASSAY: "P388 leukemia ip, CD2F1 mice, survival T/C"
  T/C: "114 % of control"
- COMPOUND: "CC(=O)NC(Cc1cc(I)c(OC(C)=O)c(I)c1)C(C)=O (stereo not given)"
  TARGET OF ASSAY: "P388 leukemia ip, CD2F1 mice, survival T/C"
  T/C: "101 % of control"
- COMPOUND: "C/C=c1/[nH]c(=O)/c(=C\\c2ccccc2)[nH]c1=O"
  TARGET OF ASSAY: "P388 leukemia ip, CD2F1 mice, survival T/C"
  T/C: "91 % of control"
- COMPOUND: "C1CCSCCCCCSCCCCCSCCCCCSCC1"
  TARGET OF ASSAY: "P388 leukemia ip, CD2F1 mice, survival T/C"
  T/C: "97 % of control"
- COMPOUND: "CS1(=O)=NC(=NC#N)c2ccccc21 (stereo not given)"
  TARGET OF ASSAY: "P388 leukemia ip, CD2F1 mice, survival T/C"
  T/C: "101 % of control"
- COMPOUND: "O=C(Cc1ccccc1)c1ccc(F)cc1"
  TARGET OF ASSAY: "P388 leukemia ip, CD2F1 mice, survival T/C"
  T/C: "98 % of control"
